Origin of measurements: patent US9688695B2

system.under.test: PAR4 (Homo sapiens (Human), UniProt Q96RI0)
Sequence (Q96RI0 18-385): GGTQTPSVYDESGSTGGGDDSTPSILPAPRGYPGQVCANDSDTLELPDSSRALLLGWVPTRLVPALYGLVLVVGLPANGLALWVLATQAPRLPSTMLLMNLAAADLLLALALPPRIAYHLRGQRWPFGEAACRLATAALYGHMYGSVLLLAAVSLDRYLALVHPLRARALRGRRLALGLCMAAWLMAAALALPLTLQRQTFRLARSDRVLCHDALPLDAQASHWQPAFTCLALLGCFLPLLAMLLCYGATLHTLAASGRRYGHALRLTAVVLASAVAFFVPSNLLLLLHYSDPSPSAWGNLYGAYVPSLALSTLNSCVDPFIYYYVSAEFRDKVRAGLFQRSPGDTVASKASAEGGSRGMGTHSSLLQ
protocol.notes: FLIPR assay in PAR4-expressing HEK293 cells (PAR4 antagonist activity, calcium mobilization)
Format: cell-based
measurement.context: H-Ala-Phe(4-F)-Pro-Gly-Trp-Leu-Val-Lys-Asn-Gly-NH2-induced calcium mobilization
quantity.name: EC50 (pM)

// solved cases for EC50 follow
>>> reported_measurement("COc1cc(OCc2csc(C3(F)CCC(F)(F)CC3)n2)c2cc(-c3cn4nc(OC)sc4n3)oc2c1 [Example 136]")
1200
>>> reported_measurement("COc1cc(OCc2csc(-c3ccc(C(=O)N4CC(O)C4)cc3)n2)c2cc(-c3cn4nc(OC)sc4n3)oc2c1 [Example 290]")
600
>>> reported_measurement("COc1cc(OCc2csc(C3(O)CCC(=O)CC3)n2)c2cc(-c3cn4nc(OC)sc4n3)oc2c1 [Example 128]")
350
>>> reported_measurement("COc1cc(OCc2csc(N3CC[S+]([O-])CC3)n2)c2cc(-c3cn4nc(OC)sc4n3)oc2c1 [Example 55]")
790

[A] COCc1sc(N2CCOCC2)nc1COc1cc(OC)cc2oc(-c3cn4nc(OC)sc4n3)cc12 [Example 90]
[B] COc1cc(OCc2nc(-c3ccc(C(=O)NCC(F)(F)F)cc3)sc2C)c2cc(-c3cn4nc(OC)sc4n3)oc2c1 [Example 47]
[C] COc1cc(OCc2csc(C3(c4ccc(C)cc4)CCOC3)n2)c2cc(-c3cn4nc(OC)sc4n3)oc2c1 (stereo not shown) [Example 164]
Order the entries by their reported EC50, beginning at the minimum. API: response body holds the labels in the requested order.
A, B, C

###

system.under.test: PAR4 (Homo sapiens (Human))
protocol.notes: FLIPR assay in PAR4-expressing HEK293 cells (PAR4 antagonist activity, calcium mobilization)
Format: cell-based
measurement.context: H-Ala-Phe(4-F)-Pro-Gly-Trp-Leu-Val-Lys-Asn-Gly-NH2-induced calcium mobilization
pEC50: −log10 of the molar value.
quantity.name: pEC50

The examples below pair each entry with its known result.
>>> reported_measurement("COc1cc(OCc2csc(-c3ccc(OC(F)(F)F)cc3)n2)c2cc(-c3cn4nc(C)ccc4n3)oc2c1")
9.07
>>> reported_measurement("C=C(c1cncnc1)c1nc(COc2cc(OC)cc3oc(-c4cn5nc(OC)sc5n4)cc23)cs1")
9.06
>>> reported_measurement("CCCN(CC)C(=O)c1ccc(-c2nc(COc3cc(OC)cc4oc(-c5cn6nc(OC)sc6n5)cc34)cs2)cc1")
9.27
>>> reported_measurement("COc1cc(OCc2csc(-c3ccc(C(=O)NC4CC4)cc3)n2)c2cc(-c3cn4nc(OC)sc4n3)oc2c1")
8.89

[a] COc1cc(OCc2csc(C3(O)CCC(F)(F)CC3)n2)c2cc(-c3cn4nc(OC)sc4n3)oc2c1
[b] COc1nn2cc(-c3cc4c(OCc5csc(-c6ccccc6)n5)cc(Cl)cc4o3)nc2s1
[c] COc1cc(OCc2csc(N3CCS(=O)(=O)CC3)n2)c2cc(-c3cn4nc(OC)sc4n3)oc2c1
# sort list by recorded pEC50, greatest to least Form field (ranking): labels in requested order.
c, a, b

###

system.under.test: PAR4 (Homo sapiens (Human), UniProt Q96RI0)
protocol.notes: Gamma thrombin induced platelet aggregation assay (PRP assay)
measurement.context: human platelet rich plasma, 96-well microplate
quantity.name: pIC50
Remember the convention: pIC50 equals -log10 of concentration in molar.

>>> reported_measurement("COc1cc(OCc2nc(N3CC4CCC(C3)O4)sc2C)c2cc(-c3cn4nc(OC)sc4n3)oc2c1 [Example 93]")
7.57

# molecule COc1cc(OCc2nc(C3(F)CCOCC3)sc2C)c2cc(-c3cn4nc(OC)sc4n3)oc2c1 [Example 125] ; its pIC50 = 8.24

Per the record, COc1cc(OCc2csc(-c3ccc(Cl)nc3)n2)c2cc(-c3cn4nc(OC)sc4n3)oc2c1 [Example 80] has pIC50 of 9.03

The molecule listed as COc1cc(OCc2csc(-c3ccc(C(=O)NCC(F)(F)F)cc3)n2)c2cc(-c3cn4nc(OC)sc4n3)oc2c1 [Example 305] has a reported pIC50 of 8.70

###

system.under.test: PAR4 (Homo sapiens (Human))
protocol.notes: FLIPR assay in PAR4-expressing HEK293 cells (PAR4 antagonist activity, calcium mobilization)
Assay type: cell-based
measurement.context: H-Ala-Phe(4-F)-Pro-Gly-Trp-Leu-Val-Lys-Asn-Gly-NH2-induced calcium mobilization
quantity.name: EC50 (nM)

// known answers, use as guide
>>> reported_measurement("COc1cc(OCc2csc(-c3ccc(C(=O)N(C)C)cc3)n2)c2cc(-c3cn4nc(C)ccc4n3)oc2c1 [Example 223]")
0.62
>>> reported_measurement("COc1cc(OCc2csc(N3CCC[C@H]3C)n2)c2cc(-c3cn4nc(C)ccc4n3)oc2c1 [Example 275]")
4.2
>>> reported_measurement("COc1nn2cc(-c3cc4c(OCc5csc(-c6ccc(C(=O)N(C)CC#N)cc6)n5)cc(F)cc4o3)nc2s1 [Example 184]")
0.38
>>> reported_measurement("COc1cc(OCc2csc(Br)n2)c2cc(-c3cn4nc(C)ccc4n3)oc2c1 [Example 205]")
3.5
>>> reported_measurement("COc1cc(OCc2csc(C3(c4ccccc4F)CCOC3)n2)c2cc(-c3cn4nc(OC)sc4n3)oc2c1 (stereo not drawn) [Example 166]")
0.97
>>> reported_measurement("COc1cc(OCc2csc(C(C)(C)c3ccccc3)n2)c2cc(-c3cn4nc(OC)sc4n3)oc2c1 [Example 175]")
1.4
>>> reported_measurement("COc1cc(OCc2csc(-c3ccc(F)nc3)n2)c2cc(-c3cn4nc(OC)sc4n3)oc2c1 [Example 73]")
0.35
>>> reported_measurement("COc1cc(OCc2csc(C3(O)CCOC3)n2)c2cc(-c3cn4nc(OC)sc4n3)oc2c1 (stereo not drawn) [Example 123]")
0.5

[A] COc1nn2cc(-c3cc4c(OCc5csc(-c6ccc(C(=O)N7CCCC7)cc6)n5)cc(F)cc4o3)nc2s1 [Example 183]
[B] COc1cc(OCc2csc(-c3ccccc3)n2)c2cc(-c3cn4nc(C)ccc4n3)oc2c1 [Example 203]
[C] CCC1CCN(c2nc(COc3cc(OC)cc4oc(-c5cn6nc(C)ccc6n5)cc34)cs2)CC1 [Example 271]
Ranking field: EC50; order: falling. In your reply, arrange the labels in the requested order.
C, B, A

[1] COc1cc(OCc2csc(C3CCN(S(=O)(=O)C(C)C)CC3)n2)c2cc(-c3cn4nc(OC)sc4n3)oc2c1 [Example 111]
[2] COc1cc(OCc2csc(C3(O)CCC(C(=O)OC(C)(C)C)CC3)n2)c2cc(-c3cn4nc(OC)sc4n3)oc2c1 (stereo not drawn) [Example 149]
[3] COc1cc(OCc2csc(-c3cccc(C)c3)n2)c2cc(-c3cn4nc(OC)sc4n3)oc2c1 [Example 12]
[4] COc1cc(OCc2coc(N3CC4CCC(C3)O4)n2)c2cc(-c3cn4nc(OC)sc4n3)oc2c1 [Example 98]
[5] COc1cc(OCc2csc(N3CCC(N(C)C)CC3)n2)c2cc(-c3cn4nc(C)ccc4n3)oc2c1 [Example 252]
Task field, ranking: reported EC50, descending order. Use the labels to give the requested order.
5, 2, 3, 1, 4
(5: 871 nM, 2: 4.1 nM, 3: 1.3 nM, 1: 0.86 nM, 4: 0.37 nM)

###

system.under.test: PAR4 (Homo sapiens (Human), UniProt Q96RI0)
protocol.notes: FLIPR assay in PAR4-expressing HEK293 cells (PAR4 antagonist activity, calcium mobilization)
Type: cell-based
measurement.context: H-Ala-Phe(4-F)-Pro-Gly-Trp-Leu-Val-Lys-Asn-Gly-NH2-induced calcium mobilization
pEC50: −log10 of the molar value.
quantity.name: pEC50

Before answering, review these 3 worked examples.
>>> reported_measurement("COc1cc(OCc2csc(-c3ccc(C(=O)NCC(F)(F)F)cc3)n2)c2cc(-c3cn4nc(OC)sc4n3)oc2c1")
9.00
>>> reported_measurement("COc1cc(OCc2nc(-c3ccccc3)sc2C)c2cc(-c3cn4nc(OC)sc4n3)oc2c1")
8.68
>>> reported_measurement("CCN(C(=O)c1ccc(-c2nc(COc3cc(OC)cc4oc(-c5cn6nc(OC)sc6n5)cc34)cs2)cc1)C1CC1")
9.26

[a] COc1cc(OCc2csc(C3(c4ccc(Cl)cc4)CCOCC3)n2)c2cc(-c3cn4nc(OC)sc4n3)oc2c1
[b] COc1cc(OCc2csc(C3(c4cccc(Cl)c4)CCOCC3)n2)c2cc(-c3cn4nc(C)ccc4n3)oc2c1
[c] COc1cc(OCc2csc(C3CCOCC3)n2)c2cc(-c3cn4nc(C)ccc4n3)oc2c1
Please put the entries in order of rising pEC50. // ordering of labels required in reply
b, c, a
